- assay: protein stability index of a GFP-peptide fusion (GPS, HEK-293T) (PSI 1-6); higher = more stable;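 note: 24-mer peptide tiles fused after GFP, lentivirally expressed, FACS-sorted into six equal bins by GFP/DsRed ratio, decoded by Illumina sequencing, PSI is the read-weighted mean bin number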
- assay context: treatment: MLN4924 1 uM, 8 h; c terminus: a fixed tail appended
For each record, write down the corresponding protein stability index.
Respond numerically, and do not add a unit to the figure.

The sequence listed as LSMLLTLKCEMNQMSGEPLDKLNF [ACSBG2] shows protein stability index equal to 2.29

In plain terms, GGSSGKGTTLRGRSDADLVVFLSP [OAS1] has a documented protein stability index of 3.07

The value of protein stability index measured for the sequence RAALICLTLVLVASVLLQAVLYPR [CD207] turned out to be 2.59

What the record says about NYSSSQDALISVSYTIITPLFNPM [OR10K2] : protein stability index is 2.92

So for EERERKRRKEEEVQQQKLAEERRR [FAF2] , the logged protein stability index turned out to be 5.36

Recorded protein stability index (sequence LLIFGKELSAIGSDTTPLPSWAAL [SNX8] ): 2.13

Input MRILAHGELVLATAISSFTRHVFT [TLE6] . Output protein stability index: 2.76

Form: sequence = VFFAYAQLGYLLFGTQVENFSTFI [PKD2L1] ; protein stability index = 2.71

get_value(item= GKRTPRGRRGWKKFYAVLKGTILY [PSD2] , readout=protein stability index) returns 2.61

Entry MSNKDRHIDSSCSSFIKTEPSSPA [ESRRG] — recorded protein stability index = 4.33

Short answer for PRALIFSTDDFFFREDGAYEFNPD [N4BP2L1] : protein stability index was 3.66

Entry under test: SISDLSEHVFDLILELYNIDSHLL [PDS5B] . Its protein stability index was 2.25

The sequence listed as VDQTGVSGGVASFICQATGDPRPK [PTPRD] shows protein stability index equal to 4.81

Kindly note the recorded protein stability index for LSLQKEQLQLKIIEIEDEAEKWQK [TRIM29] , which is 3.9

protein stability index for GRTHSACDALRTLAEARRLFPGRV [RSAD1] is 3.44

According to the records, this sequence HKTHQAPASASSLPGTGAQLPPQP [DYRK1B] displays protein stability index of 4.97

The sequence listed as SSLCYKQRIKSQERETEATRGRGG [MOG] has a reported protein stability index of 5.06

Kindly note the recorded protein stability index for RPLCAQGDWHSPTLIREKSFGACL [ELOA2] , which is 2.6

Briefly, protein stability index measured for AFGWFRCSSCQRSWASAQVQILCH [RTP4] : 2.68

The sequence identified as EERILHQQVKCIITEEKVCMVCKK [VPS39] registered its protein stability index at 4.39

Lab book: protein stability index of LPAQPNRKPGMSSTARRSRAASSQ [CHMP4C] noted as 4.87

Per the record, YVHDPECVATTGDITVSVSTSFLP [FBXO3] has protein stability index of 2.95

Input FEFQVRVCDSCYDSIKDEDRTSLA [WDFY1] . Output protein stability index: 3

Lab note: GDIHLSPEEPAASTDPNIVRKKER [TAF7L] gave protein stability index of 5.43

Recorded result, FLVFILNAGLVWFFPWREAKPGST [MFSD9] , protein stability index: 3.11

For GSGYEKLGPSRDPDPLNICVFILL [RTP4] the sequence record lists protein stability index as 2.45

// protein stability index lookup, sequence = GVIDLFGDAFGSSASEPQPASQAA [SNAP91] , result: 4.11
